Target: Stromelysin-1 (Homo sapiens)
Sequence (P08254 whole entry): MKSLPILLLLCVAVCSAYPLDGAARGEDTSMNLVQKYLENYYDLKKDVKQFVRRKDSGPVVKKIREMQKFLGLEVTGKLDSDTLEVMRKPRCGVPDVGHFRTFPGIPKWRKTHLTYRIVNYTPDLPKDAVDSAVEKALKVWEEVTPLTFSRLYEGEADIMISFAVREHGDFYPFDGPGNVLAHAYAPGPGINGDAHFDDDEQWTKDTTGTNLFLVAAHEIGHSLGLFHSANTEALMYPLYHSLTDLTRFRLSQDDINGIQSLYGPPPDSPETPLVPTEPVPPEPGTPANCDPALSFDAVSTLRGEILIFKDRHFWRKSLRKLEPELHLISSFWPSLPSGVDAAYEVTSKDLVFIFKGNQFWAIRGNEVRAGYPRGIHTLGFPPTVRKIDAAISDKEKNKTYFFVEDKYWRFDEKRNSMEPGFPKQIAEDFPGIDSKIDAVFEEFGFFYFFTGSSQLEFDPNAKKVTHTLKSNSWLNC
endpoint-label: pIC50
Numbers only, as −log10 of the molar value.

-- ask Which pIC50 is listed for CNC(=O)[C@@H]1CCCNN1C(=O)[C@H](CC(C)C)[C@H](C)C(=O)NO ?
-- reply 7.52

====

For reference, pKi measured on Stromelysin-1 (Homo sapiens, UniProt P08254):
One number for each entry, as −log10 of the molar value.

Answered examples (3):
item-smiles | measured-target | reading
CCCC[C@@H](C[C@@H](CCc1ccc(-c2ccccc2)cc1)C(=O)N[C@@H](Cc1ccc(OC)cc1)C(=O)NC)C(=O)O | Stromelysin-1 (Homo sapiens, UniProt P08254) | 7.68
CCCCc1ccc(OCC[C@H](N[C@H](C)C(=O)O)C(=O)N2NCCC[C@H]2C(=O)NC)cc1 | Stromelysin-1 (Homo sapiens, UniProt P08254) | 6.26
CNC(=O)[C@@H]1CCCNN1C(=O)[C@H](CCOc1ccc(-c2ccccc2)cc1)N[C@H](C)C(=O)O | Stromelysin-1 (Homo sapiens, UniProt P08254) | 7.11

Next compound, pKi to be filled in.
-- ask Which pKi is listed for CCCC[C@@H](C[C@@H](CCc1ccc(-c2ccccc2)cc1)C(=O)N1NCCC[C@H]1C(=O)NC)C(=O)O ?
-- reply 7.38
